src = patent US8324390B2

- Tested on: caterpillars of the armyworm (Spodoptera frugiperda)
- TEST_DESCRIPTION: Spodoptera frugiperda test (SPODFR spray treatment)
- Type: in vivo
- CONDITION: Spodoptera frugiperda, in Zea mays, foliar, read-out: effect in % (caterpillars killed)
Entries annotated with measured pest or weed control at 100 g/ha

Cc1cc(Cl)cc(C(=O)NC(C)(C)C)c1NC(=O)c1cc(Cn2nnnc2C(F)F)nn1-c1ncccc1Cl    ≥ 80%
Cc1cc(C#N)cc(C(=O)NCC#N)c1NC(=O)c1cc(Cn2nnc(C(F)F)n2)nn1-c1ncccc1Cl    ≥ 80%
CCNC(=O)c1cc(C#N)cc(C)c1NC(=O)c1cc(Cn2nnc(C(F)(F)C(F)(F)F)n2)nn1-c1ncccc1Cl    ≥ 80%

Okay, next one:
-- ask I would be grateful if you could share the reported pest or weed control at 100 g/ha for Cc1cc(F)cc(C(N)=O)c1NC(=O)c1cc(Cn2nnc(C(F)(F)F)n2)nn1-c1ncccc1Cl .
-- reply ≥ 80%
